meta.source: ChEMBL document CHEMBL5380857

ASSAY TEXT: Volume of distribution in CD-1 mouse at 5 mg/kg, po or 1 mg/kg, iv administered as single dose and measured for 24 hrs by LC-MS/MS analysis
Assay type: ADME, organism-based
CONDITION NOTES: in vivo
PROPERTY: Vd
Lab note: write values as number then unit, every time.

Field: example entries. Status: answers known.
1) Cc1n[nH]c2ccc(-c3nnc(C)n3Cc3ccc(C(F)(F)F)cc3)cc12 :: 0.4 L/kg
2) Cc1n[nH]c2ccc(-c3nnc4n3[C@H](c3ccc(Cl)cc3)COC4)cc12 :: 1.2 L/kg
3) Cc1n[nH]c2ccc(-c3nnc4n3[C@H](c3ccc(Cl)cc3)CC4)cc12 :: 0.7 L/kg
4) Cc1nnc(-c2ccc3[nH]nc(Cl)c3c2)n1Cc1ccc(Cl)cc1 :: 2.7 L/kg
5) Cc1n[nH]c2ccc(-c3nnc(C)n3Cc3ccc(Cl)cc3)cc12 :: 0.8 L/kg

So what does the record say about Vd for Cc1n[nH]c2ncc(-c3nnc4n3[C@H](c3ccc(Cl)cc3)CC4)cc12 ? 0.7 L/kg

So what does the record say about Vd for Cc1n[nH]c2ccc(-c3nnc4n3[C@H](c3ccc(Cl)cc3)CC4)nc12 ? 0.4 L/kg
